Reference for the values: patent US20060046981A1

Let's look at some molecules and their measured pEC50.
- System: CK cervical keratinocytes
- protocol.details: cells
- Assay type: cell-based
- test.settings: Homo sapiens, Keratinocyte; Table 79-3; read-out: Antiproliferation EC50 CK cervical keratinocytes
Expect pEC50 as a plain number equal to -log10 of the molar concentration.

>>> assay_result("Nc1ccn([C@@H]2O[C@H](CO)[C@@H](O)[C@@H]2O)c(=O)n1 [AraC, cytarabine]")
6.97

Now examine the next entry.
For this molecule ( Nc1nc2c(ncn2CCOCP(=O)(O)O)c(=O)[nH]1 [PMEG, 9-(2-phosphonylmethoxyethyl)guanine] ), measured pEC50 is 6.30

---

- System: HeLa cells
- protocol.details: Antiproliferation assay in HeLa cells
- Assay type: cell-based
- test.settings: Homo sapiens, Table 79-4, read-out: Antiproliferation EC50 in HPV positive carcinoma cells HeLa HPV18
test.readout: EC50 (nM)
Lab book: enter the figure in nM, no units written.

Item: Nc1ccn([C@@H]2O[C@H](CO)[C@@H](O)[C@@H]2O)c(=O)n1 | EC50: 174
